system: Recombinant human his-tagged IGF R extracellular domain protein (human) (UniProt P08069)
assay_method_text: SPR, Ab captured via anti-huIgG Fc, dissociation at pH 6
What koff was measured for each of the following?
Use s⁻¹ as the unit, but write only the number.

Challenge: Return reported koff; argument: VRDN-02041 (antibody, V domains shown) VH: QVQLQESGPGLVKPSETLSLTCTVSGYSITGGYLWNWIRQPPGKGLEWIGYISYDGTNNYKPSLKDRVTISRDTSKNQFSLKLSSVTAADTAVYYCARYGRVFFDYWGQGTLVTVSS VL: DIVMTQSPLSLPVTPGEPASISCRSSQSIVHSNGNTHLQWYLQKPGQSPQLLIYKVSNRLYGVPDRFSGSGSGTDFTLKISRVEAEDVGVYYCFQGSHVPWTFGQGTKVEIK
Response given: 0.000102

Challenge: # get_value(readout='koff', item= VRDN-02010 (antibody, V domains shown) VH: QVQLQESGPGLVKPSETLSLTCTVSGYSITGGYLHNWIRQPPGKGLEWIGYISYDGTNNYKPSLKDRVTISRDTSKNQFSLKLSSVTAADTAVYYCARYGRVFFDYWGQGTLVTVSS VL: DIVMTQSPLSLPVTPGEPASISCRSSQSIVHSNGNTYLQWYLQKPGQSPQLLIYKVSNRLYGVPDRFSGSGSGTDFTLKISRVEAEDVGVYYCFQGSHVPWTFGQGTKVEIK )
Response given: 0.00074

Challenge: GET /values?readout=koff&item= VRDN-02062 (antibody, V domains shown) VH: QVQLQESGPGLVKPSETLSLTCTVSGYSITGGYLWNWIRQPPGKGLEWIGYIHYDGTNNYKPSLKDRVTISRDTSKNQFSLKLSSVTAADTAVYYCARYGRVFFDYWGQGTLVTVSS VL: DIVMTQSPLSLPVTPGEPASISCRSSQSIVHSNGNTYLQWYLQKPGQSPQLLIYKVSNRLYGVPDRFSGSGSGTDFTLKISRVEAEDVGVYYCFHGSHVPWTFGQGTKVEIK
Response given: 2.82e-05
